Values from patent US20240228459A1

Reported pIC50 values are given for each entry in this list.
# Assay target: Wee1 (Homo sapiens, UniProt P30291)
# Sequence (P30291 whole entry, species assumed): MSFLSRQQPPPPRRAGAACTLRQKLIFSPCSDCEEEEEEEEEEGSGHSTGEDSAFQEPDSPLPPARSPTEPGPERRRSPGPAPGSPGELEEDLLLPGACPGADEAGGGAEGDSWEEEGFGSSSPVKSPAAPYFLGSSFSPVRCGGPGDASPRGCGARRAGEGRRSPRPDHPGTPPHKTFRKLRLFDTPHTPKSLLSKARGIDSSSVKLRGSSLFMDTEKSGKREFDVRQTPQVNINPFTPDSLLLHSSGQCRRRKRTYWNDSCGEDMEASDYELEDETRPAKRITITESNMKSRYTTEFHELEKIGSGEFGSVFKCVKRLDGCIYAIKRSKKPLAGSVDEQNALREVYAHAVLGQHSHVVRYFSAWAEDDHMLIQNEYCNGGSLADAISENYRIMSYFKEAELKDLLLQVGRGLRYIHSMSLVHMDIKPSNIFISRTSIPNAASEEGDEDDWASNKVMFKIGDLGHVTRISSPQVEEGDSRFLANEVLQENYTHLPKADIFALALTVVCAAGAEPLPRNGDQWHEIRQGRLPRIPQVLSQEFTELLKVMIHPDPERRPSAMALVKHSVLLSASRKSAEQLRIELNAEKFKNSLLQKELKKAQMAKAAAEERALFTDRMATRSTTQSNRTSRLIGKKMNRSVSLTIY
# Procedure summary: Wee1 pCDK1 activity (known assay)
pIC50: −log10 of the molar value.

Some compounds with known pIC50 results, for comparison:
Compound | Assay result
C[C@H]1CN(C)CCN1c1ccc(Nc2ncc(C#N)c(Nc3ccc4c(n3)C(C)(O)CC4)n2)cc1 (mixture of isomers) | 6.00 to 6.30
CN1CCN(c2ccc(Nc3ncc(C#N)c(Nc4cccc(N5CCCC5)n4)n3)cc2)CC1 | 6.60 to 7.00
CN1CCc2cc(Nc3ncc(C#N)c(Nc4cccc(N5CCOC5=O)n4)n3)ccc2C1 | ≥ 7.00
CCC1(O)CCc2ccc(Nc3nc(Nc4ccc(N5C[C@@H](C)N(C)[C@@H](C)C5)cc4)ncc3C#N)nc21 (mixture of isomers) | 6.60 to 7.00
COCC1CN(C)CCN1c1ccc(Nc2ncc(C#N)c(Nc3cccc(N4CCCC4=O)n3)n2)cc1 (stereo not shown) | 6.30 to 6.60
Cc1cc(Nc2ncc(C#N)c(Nc3cccc(N4CCOC4=O)n3)n2)ccc1C1CCN(C)CC1 | 6.60 to 7.00

Here is another compound to look at.
pIC50 reading for CCC1(O)CCc2ccc(Nc3nc(Nc4ccc(N5CCN(C(C)=O)C6(CC6)C5)cc4)ncc3C#N)nc21 (stereo not shown) : 6.30 to 6.60
